Test system: RKO cell line
ASSAY EXPLANATION: solid tumor cell growth inhibition, MTT
Assay type: cell-based
PROTOCOL CONDITIONS: Homo sapiens, 72 h
Reported IC50 values are given for each entry in this list.
OUTCOME MEASURE: IC50

[
  {
    "MOLECULE": "CCN(CC)CCNC(=O)C1C[C@@]2(C)C(CC[C@]3(C)C2CC=C2C4CC(C)(C)CC[C@]4(C(=O)O)CC[C@]23C)C(C)(C)C1=O (stereo partly drawn) [BS-OA-106]",
    "TEST RESULT": "> 16 µg/mL"
  },
  {
    "MOLECULE": "CCN(CC)CCNC(=O)C1C[C@@]2(C)C(CC[C@]3(C)C2CC=C2C4CC(C)(C)CC[C@]4(C(=O)OC)CC[C@]23C)C(C)(C)C1=O (stereo partly drawn) [BS-OA-012]",
    "TEST RESULT": "2 µg/mL"
  },
  {
    "MOLECULE": "CC1(C)CC[C@]2(C(=O)O)CC[C@]3(C)C(=CC[C@@H]4[C@@]5(C)CC[C@H](O)C(C)(C)[C@@H]5CC[C@]43C)[C@@H]2C1 [OA, Oleanolic acid]",
    "TEST RESULT": "> 16 µg/mL"
  },
  {
    "MOLECULE": "CN(C)CCCNC(=O)C1C[C@@]2(C)C(CC[C@]3(C)C2CC=C2C4CC(C)(C)CC[C@]4(C(=O)O)CC[C@]23C)C(C)(C)C1=O (stereo partly drawn) [BS-OA-109]",
    "TEST RESULT": "> 16 µg/mL"
  },
  {
    "MOLECULE": "COC(=O)[C@]12CCC(C)(C)C[C@H]1C1=CC[C@@H]3[C@@]4(C)CC(C(=O)NCCN5CCOCC5)C(=O)C(C)(C)[C@@H]4CC[C@@]3(C)[C@]1(C)CC2 (stereo partly drawn) [BS-OA-059]",
    "TEST RESULT": "> 16 µg/mL"
  },
  {
    "MOLECULE": "COC(=O)[C@]12CCC(C)(C)CC1C1=CCC3[C@@]4(C)CC(C(=O)NCCCN5CCCC5)C(=O)C(C)(C)C4CC[C@@]3(C)[C@]1(C)CC2 (stereo partly drawn) [BS-OA-016]",
    "TEST RESULT": "3.33 µg/mL"
  }
]

* * *

System: CNE cell line
ASSAY EXPLANATION: solid tumor cell growth inhibition, MTT
Assay type: cell-based
PROTOCOL CONDITIONS: Homo sapiens, 16 μg/mL compound, 72 h, read-out: IR (cell proliferation inhibition rate)
Measured inhibition at 16 µg/mL of individual entries
OUTCOME MEASURE: inhibition at 16 µg/mL (%)

[
  {
    "MOLECULE": "CCN(CC)CCCNC(=O)C1C[C@@]2(C)C(CC[C@]3(C)C2CC=C2C4CC(C)(C)CC[C@]4(C(=O)O)CC[C@]23C)C(C)(C)C1=O (stereo partly drawn)",
    "TEST RESULT": 42.7
  },
  {
    "MOLECULE": "COC(=O)[C@]12CCC(C)(C)CC1C1=CCC3[C@@]4(C)CC(C(=O)NCCCN5CCN(C)CC5)C(=O)C(C)(C)C4CC[C@@]3(C)[C@]1(C)CC2 (stereo partly drawn)",
    "TEST RESULT": 99.7
  },
  {
    "MOLECULE": "COCCCNC(=O)C1C[C@]2(C)[C@H]3CC=C4[C@@H]5CC(C)(C)CC[C@]5(C(=O)OC)CC[C@@]4(C)[C@]3(C)CC[C@H]2C(C)(C)C1=O (stereo partly drawn)",
    "TEST RESULT": 9.9
  }
]

* * *

Tested on: Hep-2 cell line
ASSAY EXPLANATION: solid tumor cell growth inhibition, MTT
Type: cell-based
PROTOCOL CONDITIONS: Homo sapiens, HEp-2, 72 h

[
  {
    "MOLECULE": "COC(=O)[C@]12CCC(C)(C)CC1C1=CCC3[C@@]4(C)CC(C(=O)NC5CC5)C(=O)C(C)(C)C4CC[C@@]3(C)[C@]1(C)CC2 (stereo partly drawn) [BS-OA-034]",
    "QUALIFIER SYMBOL": ">",
    "IC50 (µg/mL)": 16
  },
  {
    "MOLECULE": "COC(=O)[C@]12CCC(C)(C)CC1C1=CCC3[C@@]4(C)CC(C(=O)NCCc5cccnc5)C(=O)C(C)(C)C4CC[C@@]3(C)[C@]1(C)CC2 (stereo partly drawn) [BS-OA-027]",
    "QUALIFIER SYMBOL": ">",
    "IC50 (µg/mL)": 16
  },
  {
    "MOLECULE": "COCCCNC(=O)C1C[C@]2(C)[C@H]3CC=C4[C@@H]5CC(C)(C)CC[C@]5(C(=O)OC)CC[C@@]4(C)[C@]3(C)CC[C@H]2C(C)(C)C1=O (stereo partly drawn) [BS-OA-052]",
    "QUALIFIER SYMBOL": ">",
    "IC50 (µg/mL)": 16
  },
  {
    "MOLECULE": "COC(=O)[C@]12CCC(C)(C)CC1C1=CCC3[C@@]4(C)CC(C(=O)NCCCN(C)C)C(=O)C(C)(C)C4CC[C@@]3(C)[C@]1(C)CC2 (stereo partly drawn) [BS-OA-042]",
    "QUALIFIER SYMBOL": "=",
    "IC50 (µg/mL)": 5.99
  },
  {
    "MOLECULE": "COC(=O)[C@]12CCC(C)(C)C[C@H]1C1=CC[C@@H]3[C@@]4(C)CC(C(=O)NCCN5CCCCC5)C(=O)C(C)(C)[C@@H]4CC[C@@]3(C)[C@]1(C)CC2 (stereo partly drawn) [BS-OA-004]",
    "QUALIFIER SYMBOL": "=",
    "IC50 (µg/mL)": 10.1
  },
  {
    "MOLECULE": "CC1(C)CC[C@]2(C(=O)O)CC[C@]3(C)C(=CC[C@@H]4[C@@]5(C)CC(C(=O)NCCN6CCCC6)C(=O)C(C)(C)[C@@H]5CC[C@]43C)[C@@H]2C1 (stereo partly drawn) [BS-OA-105]",
    "QUALIFIER SYMBOL": ">",
    "IC50 (µg/mL)": 16
  },
  {
    "MOLECULE": "COC(=O)[C@]12CCC(C)(C)CC1C1=CCC3[C@@]4(C)CC(C(=O)NCCCN5CCCC5)C(=O)C(C)(C)C4CC[C@@]3(C)[C@]1(C)CC2 (stereo partly drawn) [BS-OA-016]",
    "QUALIFIER SYMBOL": "=",
    "IC50 (µg/mL)": 5.85
  },
  {
    "MOLECULE": "CCN(CC)CCCNC(=O)C1C[C@@]2(C)C(CC[C@]3(C)C2CC=C2C4CC(C)(C)CC[C@]4(C(=O)O)CC[C@]23C)C(C)(C)C1=O (stereo partly drawn) [BS-OA-108]",
    "QUALIFIER SYMBOL": ">",
    "IC50 (µg/mL)": 16
  },
  {
    "MOLECULE": "CCN(CC)CCNC(=O)C1C[C@@]2(C)C(CC[C@]3(C)C2CC=C2C4CC(C)(C)CC[C@]4(C(=O)OC)CC[C@]23C)C(C)(C)C1=O (stereo partly drawn) [BS-OA-012]",
    "QUALIFIER SYMBOL": "=",
    "IC50 (µg/mL)": 5.5
  },
  {
    "MOLECULE": "CN(C)CCCNC(=O)C1C[C@@]2(C)C(CC[C@]3(C)C2CC=C2C4CC(C)(C)CC[C@]4(C(=O)O)CC[C@]23C)C(C)(C)C1=O (stereo partly drawn) [BS-OA-109]",
    "QUALIFIER SYMBOL": ">",
    "IC50 (µg/mL)": 16
  },
  {
    "MOLECULE": "COC(=O)[C@]12CCC(C)(C)CC1C1=CCC3[C@@]4(C)CC(C(=O)NCCc5ccccn5)C(=O)C(C)(C)C4CC[C@@]3(C)[C@]1(C)CC2 (stereo partly drawn) [BS-OA-032]",
    "QUALIFIER SYMBOL": ">",
    "IC50 (µg/mL)": 16
  },
  {
    "MOLECULE": "CCN(CC)CCCNC(=O)C1C[C@]2(C)[C@H]3CC=C4[C@@H]5CC(C)(C)CC[C@]5(C(=O)OC)CC[C@@]4(C)[C@]3(C)CC[C@H]2C(C)(C)C1=O (stereo partly drawn) [BS-OA-035]",
    "QUALIFIER SYMBOL": "=",
    "IC50 (µg/mL)": 5.34
  }
]

* * *

Tested on: Hela cell line
ASSAY EXPLANATION: solid tumor cell growth inhibition, MTT
Assay type: cell-based
PROTOCOL CONDITIONS: Homo sapiens; Hela, 16 μg/mL compound, 72 h; read-out: IR (cell proliferation inhibition rate)
Label True when inhibition at 16 µg/mL is at or above 30%; otherwise label False.

[
  {
    "COMPOUND": "CCN(CC)CCNC(=O)C1C[C@@]2(C)C(CC[C@]3(C)C2CC=C2C4CC(C)(C)CC[C@]4(C(=O)O)CC[C@]23C)C(C)(C)C1=O (stereo partly drawn)",
    "LABEL VALUE": "True"
  },
  {
    "COMPOUND": "COC(=O)[C@]12CCC(C)(C)CC1C1=CCC3[C@@]4(C)CC(C(=O)NCCCN(C)C)C(=O)C(C)(C)C4CC[C@@]3(C)[C@]1(C)CC2 (stereo partly drawn)",
    "LABEL VALUE": "True"
  },
  {
    "COMPOUND": "COC(=O)[C@]12CCC(C)(C)CC1C1=CCC3[C@@]4(C)CC(C(=O)NCCCN5CCCC5)C(=O)C(C)(C)C4CC[C@@]3(C)[C@]1(C)CC2 (stereo partly drawn)",
    "LABEL VALUE": "True"
  },
  {
    "COMPOUND": "COC(=O)[C@]12CCC(C)(C)C[C@H]1C1=CC[C@@H]3[C@@]4(C)CC(C(=O)NCC5CC5)C(=O)C(C)(C)[C@@H]4CC[C@@]3(C)[C@]1(C)CC2 (stereo partly drawn)",
    "LABEL VALUE": "False"
  },
  {
    "COMPOUND": "COC(=O)[C@]12CCC(C)(C)C[C@H]1C1=CC[C@@H]3[C@@]4(C)CC(C(=O)NCCN5CCOCC5)C(=O)C(C)(C)[C@@H]4CC[C@@]3(C)[C@]1(C)CC2 (stereo partly drawn)",
    "LABEL VALUE": "True"
  },
  {
    "COMPOUND": "COC(=O)[C@]12CCC(C)(C)CC1C1=CCC3[C@@]4(C)CC(C(=O)NCCc5cccnc5)C(=O)C(C)(C)C4CC[C@@]3(C)[C@]1(C)CC2 (stereo partly drawn)",
    "LABEL VALUE": "True"
  },
  {
    "COMPOUND": "CCC(C)CNC(=O)C1C[C@@]2(C)C(CC[C@]3(C)C2CC=C2C4CC(C)(C)CC[C@]4(C(=O)OC)CC[C@]23C)C(C)(C)C1=O (stereo partly drawn)",
    "LABEL VALUE": "False"
  },
  {
    "COMPOUND": "CC1(C)CC[C@]2(C(=O)O)CC[C@]3(C)C(=CC[C@@H]4[C@@]5(C)CC[C@H](O)C(C)(C)[C@@H]5CC[C@]43C)[C@@H]2C1",
    "LABEL VALUE": "False"
  },
  {
    "COMPOUND": "COC(=O)[C@]12CCC(C)(C)CC1C1=CCC3[C@@]4(C)CC(C(=O)NC5CC5)C(=O)C(C)(C)C4CC[C@@]3(C)[C@]1(C)CC2 (stereo partly drawn)",
    "LABEL VALUE": "False"
  },
  {
    "COMPOUND": "COC(=O)[C@]12CCC(C)(C)CC1C1=CCC3[C@@]4(C)CC(C(=O)NCCC(C)C)C(=O)C(C)(C)C4CC[C@@]3(C)[C@]1(C)CC2 (stereo partly drawn)",
    "LABEL VALUE": "False"
  },
  {
    "COMPOUND": "CC1(C)CC[C@]2(C(=O)O)CC[C@]3(C)C(=CC[C@@H]4[C@@]5(C)CC(C(=O)NCCN6CCCC6)C(=O)C(C)(C)[C@@H]5CC[C@]43C)[C@@H]2C1 (stereo partly drawn)",
    "LABEL VALUE": "True"
  },
  {
    "COMPOUND": "COC(=O)[C@]12CCC(C)(C)CC1C1=CCC3[C@@]4(C)CC(C(=O)NCCc5ccccn5)C(=O)C(C)(C)C4CC[C@@]3(C)[C@]1(C)CC2 (stereo partly drawn)",
    "LABEL VALUE": "True"
  },
  {
    "COMPOUND": "CCN(CC)CCCNC(=O)C1C[C@]2(C)[C@H]3CC=C4[C@@H]5CC(C)(C)CC[C@]5(C(=O)OC)CC[C@@]4(C)[C@]3(C)CC[C@H]2C(C)(C)C1=O (stereo partly drawn)",
    "LABEL VALUE": "True"
  },
  {
    "COMPOUND": "CN(C)CCCNC(=O)C1C[C@@]2(C)C(CC[C@]3(C)C2CC=C2C4CC(C)(C)CC[C@]4(C(=O)O)CC[C@]23C)C(C)(C)C1=O (stereo partly drawn)",
    "LABEL VALUE": "False"
  },
  {
    "COMPOUND": "COCCCNC(=O)C1C[C@]2(C)[C@H]3CC=C4[C@@H]5CC(C)(C)CC[C@]5(C(=O)OC)CC[C@@]4(C)[C@]3(C)CC[C@H]2C(C)(C)C1=O (stereo partly drawn)",
    "LABEL VALUE": "False"
  },
  {
    "COMPOUND": "CCN(CC)CCNC(=O)C1C[C@@]2(C)C(CC[C@]3(C)C2CC=C2C4CC(C)(C)CC[C@]4(C(=O)OC)CC[C@]23C)C(C)(C)C1=O (stereo partly drawn)",
    "LABEL VALUE": "True"
  },
  {
    "COMPOUND": "CCN(CC)CCCNC(=O)C1C[C@@]2(C)C(CC[C@]3(C)C2CC=C2C4CC(C)(C)CC[C@]4(C(=O)O)CC[C@]23C)C(C)(C)C1=O (stereo partly drawn)",
    "LABEL VALUE": "True"
  },
  {
    "COMPOUND": "CCOCCNC(=O)C1C[C@@]2(C)C(CC[C@]3(C)C2CC=C2C4CC(C)(C)CC[C@]4(C(=O)OC)CC[C@]23C)C(C)(C)C1=O (stereo partly drawn)",
    "LABEL VALUE": "False"
  }
]
